Molecular target: Histamine H2 receptor (Cavia porcellus, UniProt P47747)
Sequence (P47747 whole entry): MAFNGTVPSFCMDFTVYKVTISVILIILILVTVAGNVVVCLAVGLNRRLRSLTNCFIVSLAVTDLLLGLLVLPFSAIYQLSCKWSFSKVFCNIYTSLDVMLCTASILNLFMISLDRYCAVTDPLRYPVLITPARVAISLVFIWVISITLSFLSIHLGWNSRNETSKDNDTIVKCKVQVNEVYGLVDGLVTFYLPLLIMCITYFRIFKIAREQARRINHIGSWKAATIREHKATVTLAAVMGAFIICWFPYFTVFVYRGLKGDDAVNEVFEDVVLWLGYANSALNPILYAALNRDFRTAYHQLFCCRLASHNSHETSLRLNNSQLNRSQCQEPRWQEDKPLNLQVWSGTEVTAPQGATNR
Test: Compound was evaluated for its antagonist affinity towards Histamine H2 receptor of guinea pig
Type: functional
Settings: read-out: pA2 (converted)
Quick reference: Kb of the listed items.
Form entry: enter the amount, then its unit.

NCCc1cnc(CCC(c2ccccc2)c2ccccc2)[nH]1 34.7 µM
CCNCCc1c[nH]c(CCC(c2ccccc2)c2ccccc2)n1 31.6 µM
CNCCc1cnc(CCC(c2ccccc2)c2ccccc2)[nH]1 12.6 µM
CN(C)CCc1c[nH]c(CCC(c2ccccc2)c2ccccc2)n1 26.3 µM

[Q] Item c1ccc(C(CCc2nc(CCNC3CC3)c[nH]2)c2ccccc2)cc1 : provide Kb
[A] 20 µM

---

Listing of recorded pEC50 by entry.
Target: Histamine H1 receptor (Cavia porcellus)
Test: Effective concentration for agonism activity in endothelium-denuded guinea pig aortic segment
Format: functional, tissue-based, Aorta
Just the number, please; pEC50 means minus log10 of the concentration in mol/L.

CN(C)CCc1c[nH]c(CCC(c2ccccc2)c2ccccc2)n1 6.08
CNCCc1cnc(CCC(c2ccccc2)c2ccccc2)[nH]1 6.31

[Q] Give me measured pEC50, please, for this compound: c1ccc(C(CCc2nc(CCNC3CC3)c[nH]2)c2ccccc2)cc1
[A] 5.64

---

Target: Histamine H1 receptor (Cavia porcellus) (UniProt P31389)
Sequence (P31389 whole entry): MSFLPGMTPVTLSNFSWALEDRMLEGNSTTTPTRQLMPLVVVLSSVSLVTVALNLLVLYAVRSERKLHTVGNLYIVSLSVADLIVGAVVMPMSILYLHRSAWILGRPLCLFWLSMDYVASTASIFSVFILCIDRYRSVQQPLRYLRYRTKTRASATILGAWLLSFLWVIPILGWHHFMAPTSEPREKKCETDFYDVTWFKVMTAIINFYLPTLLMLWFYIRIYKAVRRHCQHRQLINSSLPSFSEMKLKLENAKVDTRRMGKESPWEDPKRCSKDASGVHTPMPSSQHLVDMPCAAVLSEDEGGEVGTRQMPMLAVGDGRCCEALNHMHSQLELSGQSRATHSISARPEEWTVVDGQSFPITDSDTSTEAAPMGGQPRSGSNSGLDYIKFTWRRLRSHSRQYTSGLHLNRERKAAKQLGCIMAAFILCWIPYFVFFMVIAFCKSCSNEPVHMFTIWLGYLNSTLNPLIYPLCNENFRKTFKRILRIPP
Experiment: Negative logarithm of receptor dissociation constant Kp was reported in guinea pig ileum whole segment
Format: functional, tissue-based
Collected pKp values appear next to each entry.
Write the number on its own, no unit after it.

CNCCc1c[nH]c(CCC(c2ccccc2)c2ccccc2)n1 6.45
c1ccc(C(CCc2nc(CCN3CCCC3)c[nH]2)c2ccccc2)cc1 6.52
CCNCCc1c[nH]c(CCC(c2ccccc2)c2ccccc2)n1 5.75
CN(C)CCc1c[nH]c(CCC(c2ccccc2)c2ccccc2)n1 6.4

From here, focus on the item given below.
[Q] Indicate its recorded pKp; the molecule in question is c1ccc(C(CCc2nc(CCNC3CC3)c[nH]2)c2ccccc2)cc1
[A] 6.17

---

# pEC50 listing for each entry below
Target: Histamine H1 receptor (Rattus norvegicus, UniProt P31390)
Sequence (P31390 whole entry): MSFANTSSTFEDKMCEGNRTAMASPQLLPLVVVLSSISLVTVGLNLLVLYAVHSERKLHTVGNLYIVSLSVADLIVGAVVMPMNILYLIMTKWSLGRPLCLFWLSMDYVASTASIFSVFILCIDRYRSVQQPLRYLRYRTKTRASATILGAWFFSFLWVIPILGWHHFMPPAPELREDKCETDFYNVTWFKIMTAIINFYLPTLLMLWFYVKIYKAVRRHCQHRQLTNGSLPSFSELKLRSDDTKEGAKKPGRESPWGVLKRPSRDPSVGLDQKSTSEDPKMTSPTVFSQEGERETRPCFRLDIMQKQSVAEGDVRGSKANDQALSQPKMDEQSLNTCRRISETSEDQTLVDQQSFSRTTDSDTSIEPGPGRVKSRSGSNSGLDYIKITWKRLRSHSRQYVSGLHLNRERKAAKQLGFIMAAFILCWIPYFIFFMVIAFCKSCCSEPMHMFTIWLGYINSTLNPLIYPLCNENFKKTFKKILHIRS
Experiment: Effective concentration for agonism activity in relaxed rat aortic rings with intact endothelium, submaximally precontracted with 15.8 nM U-46,619
Note: pEC50 values are expressed as the negative base-10 logarithm of concentration in M.

c1ccc(C(CCc2nc(CCN3CCCC3)c[nH]2)c2ccccc2)cc1 5.87
NCCc1cnc(CCC(c2ccccc2)c2ccccc2)[nH]1 6.07
CN(C)CCc1c[nH]c(CCC(c2ccccc2)c2ccccc2)n1 6.77
CCNCCc1c[nH]c(CCC(c2ccccc2)c2ccccc2)n1 6.19
c1ccc(C(CCc2nc(CCNC3CC3)c[nH]2)c2ccccc2)cc1 6.45

Let us move to another entry and its pEC50.
[Q] Tell me its pEC50 given CNCCc1cnc(CCC(c2ccccc2)c2ccccc2)[nH]1 as the entry.
[A] 6.80
